PROCEDURE TEXT: Plasma pharmacokinetics of tipifarnib, LCMS/MS, non-compartmental analysis
Assay type: in vivo, human
CONDITION SET: human, plasma, oral, 1200 mg, Tmax, high, Day 1, 1200 mg, plasma
PARAMETER: Tmax

>>> print(df.to_string())
                                   compound  parameter  endpoint_result
0  Cn1cncc1[C@@](N)(c1ccc(Cl)cc1)c1ccc2c(c1)c(-c1cccc(Cl)c1)cc(=O)n2C [tipifarnib, Tipifarnib]       Tmax              3 h

----------
PROCEDURE TEXT: Plasma pharmacokinetics of tipifarnib, LCMS/MS, non-compartmental analysis
Type: in vivo, human
CONDITION SET: human, plasma, oral, 1400 mg, AUC12h, low, Day 1, 1400 mg, plasma
PARAMETER: AUC(0-t)

In [3]: df
Out[3]:
                              record_smiles  parameter  endpoint_result
0  Cn1cncc1[C@@](N)(c1ccc(Cl)cc1)c1ccc2c(c1)c(-c1cccc(Cl)c1)cc(=O)n2C   AUC(0-t)     8950 ng·h/mL

----------
PROCEDURE TEXT: Plasma pharmacokinetics of tipifarnib, LCMS/MS, non-compartmental analysis
Type: in vivo, human
CONDITION SET: human, plasma, oral, 1400 mg, Cmax, median, Day 1, 1400 mg, plasma
PARAMETER: Cmax (ng/mL)

In [3]: df
Out[3]:
                              record_smiles  endpoint_result
0  Cn1cncc1[C@@](N)(c1ccc(Cl)cc1)c1ccc2c(c1)c(-c1cccc(Cl)c1)cc(=O)n2C             3920

----------
PROCEDURE TEXT: Plasma pharmacokinetics of tipifarnib, LCMS/MS, non-compartmental analysis
Format: in vivo, human
CONDITION SET: human, plasma, oral, 1200 mg, AUC12h, low, Day 5, 1200 mg bid, plasma
PARAMETER: AUC(0-t) (ng·h/mL)

>>> df
                                   compound  endpoint_result
0  Cn1cncc1[C@@](N)(c1ccc(Cl)cc1)c1ccc2c(c1)c(-c1cccc(Cl)c1)cc(=O)n2C [tipifarnib, Tipifarnib]             4620

----------
PROCEDURE TEXT: Plasma pharmacokinetics of tipifarnib, LCMS/MS, non-compartmental analysis
Type: in vivo, human
CONDITION SET: human, plasma, oral, 1200 mg, AUC12h, high, Day 5, 1200 mg bid, plasma
PARAMETER: AUC(0-t) (ng·h/mL)

>>> df
                                   compound  unit_info  endpoint_result
0  Cn1cncc1[C@@](N)(c1ccc(Cl)cc1)c1ccc2c(c1)c(-c1cccc(Cl)c1)cc(=O)n2C [tipifarnib, Tipifarnib]    ng·h/mL            14200

----------
PROCEDURE TEXT: Plasma pharmacokinetics of tipifarnib, LCMS/MS, non-compartmental analysis
Format: in vivo, human
CONDITION SET: human, plasma, oral, 1200 mg, Cmin, median, Day 5, 1200 mg bid, plasma
PARAMETER: concentration at 5 day (ng/mL)

>>> df
                              record_smiles               parameter  endpoint_result
0  Cn1cncc1[C@@](N)(c1ccc(Cl)cc1)c1ccc2c(c1)c(-c1cccc(Cl)c1)cc(=O)n2C  concentration at 5 day              166

Numbers sourced from paper PMC3165084.
